Hi there, I'd appreciate the recorded koff for every entry that follows.
- Tested System: HIV-1 YU2 gp120 (HIV-1 YU2, UniProt P35961 32-498)
- Procedure Text: SPR
One number for each entry, in s⁻¹.

Consider the following items and state reported koff for each.
1. MVN_G43E/G85Q (natural protein) MPNFSHTCSSINYDPDSTILSAECQARDGEWLPTELRLSDHIENIDGELQFGDQNFQETCQDCHLEFGDGEQSVWLVCTCQTMDQEWKSTQILLDSQIDNNDSQLEIG
2. MVN(Q81K/M83R) (natural protein) MPNFSHTCSSINYDPDSTILSAECQARDGEWLPTELRLSDHIGNIDGELQFGDQNFQETCQDCHLEFGDGEQSVWLVCTCKTRDGEWKSTQILLDSQIDNNDSQLEIG
3. MVN_G43E (natural protein) MPNFSHTCSSINYDPDSTILSAECQARDGEWLPTELRLSDHIENIDGELQFGDQNFQETCQDCHLEFGDGEQSVWLVCTCQTMDGEWKSTQILLDSQIDNNDSQLEIG
4. MVN_Q81K (natural protein) MPNFSHTCSSINYDPDSTILSAECQARDGEWLPTELRLSDHIGNIDGELQFGDQNFQETCQDCHLEFGDGEQSVWLVCTCKTMDGEWKSTQILLDSQIDNNDSQLEIG

[0.000122, "3.3e-05", 0.00061, 0.000368]
